- Measured target: feline FcRn (FCN-F82W3, Acrobiosystems) (feline)
- Assay procedure: SPR Carterra, IgG coupled, pH 6.0
Reported koff is given for each of the following binders.
State the answer as a number, implicitly in s⁻¹.

Below: 9 binders and their reported koff.
anti-NGF feline IgG1a, Fc variant R301L (antibody, part only; not given: anti-NGF variable domains, not shown: another chain or arm of the molecule; small tags and cut ends) Fc: PPEMLGGPSIFIFPPKPKDTLSISRTPEVTCLVVDLGPDDSDVQITWFVDNTQVYTAKTSPREEQFNSTYLVVSVLPILHQDWLKGKEFKCKVNSKSLPSPIERTISKAKGQPHEPQVYVLPPAQEELSRNKVSVTCLIKSFHPPDIAVEWEITGQPEPENNYRTTPPQLDSDGTYFVYSKLSVDRSHWQRGNTYTCSVSHEALHSHHTQKSLTQSPGK	0.0435
anti-NGF feline IgG1a, Fc variant I377Y (antibody, part only; not given: anti-NGF variable domains, not shown: another chain or arm of the molecule; small tags and cut ends) Fc: PPEMLGGPSIFIFPPKPKDTLSISRTPEVTCLVVDLGPDDSDVQITWFVDNTQVYTAKTSPREEQFNSTYRVVSVLPILHQDWLKGKEFKCKVNSKSLPSPIERTISKAKGQPHEPQVYVLPPAQEELSRNKVSVTCLIKSFHPPDYAVEWEITGQPEPENNYRTTPPQLDSDGTYFVYSKLSVDRSHWQRGNTYTCSVSHEALHSHHTQKSLTQSPGK	0.0514
anti-NGF feline IgG1a, Fc variant Q311L (antibody, part only; not given: anti-NGF variable domains, light chain, not shown: another chain or arm of the molecule; small tags and cut ends) Fc: PPEMLGGPSIFIFPPKPKDTLSISRTPEVTCLVVDLGPDDSDVQITWFVDNTQVYTAKTSPREEQFNSTYRVVSVLPILHLDWLKGKEFKCKVNSKSLPSPIERTISKAKGQPHEPQVYVLPPAQEELSRNKVSVTCLIKSFHPPDIAVEWEITGQPEPENNYRTTPPQLDSDGTYFVYSKLSVDRSHWQRGNTYTCSVSHEALHSHHTQKSLTQSPGK	0.0499
anti-NGF feline IgG1a, Fc variant S428L, E380D, S434R (antibody, part only; not given: Anti-NGF variable domains, not shown: another chain or arm of the molecule; small tags and cut ends) Fc: PPEMLGGPSIFIFPPKPKDTLSISRTPEVTCLVVDLGPDDSDVQITWFVDNTQVYTAKTSPREEQFNSTYRVVSVLPILHQDWLKGKEFKCKVNSKSLPSPIERTISKAKGQPHEPQVYVLPPAQEELSRNKVSVTCLIKSFHPPDIAVDWEITGQPEPENNYRTTPPQLDSDGTYFVYSKLSVDRSHWQRGNTYTCSVLHEALHRHHTQKSLTQSPGK	0.00973
anti-NGF feline IgG1a, Fc variant S434Y, E293D (antibody, part only; not given: anti-NGF variable domains, light chain, not shown: another chain or arm of the molecule; small tags and cut ends) Fc: PPEMLGGPSIFIFPPKPKDTLSISRTPEVTCLVVDLGPDDSDVQITWFVDNTQVYTAKTSPRDEQFNSTYRVVSVLPILHQDWLKGKEFKCKVNSKSLPSPIERTISKAKGQPHEPQVYVLPPAQEELSRNKVSVTCLIKSFHPPDIAVEWEITGQPEPENNYRTTPPQLDSDGTYFVYSKLSVDRSHWQRGNTYTCSVSHEALHYHHTQKSLTQSPGK	0.00534
anti-NGF feline IgG1a, Fc variant S290V, R334D (antibody, part only; not given: anti-NGF variable domains, light chain, not shown: another chain or arm of the molecule; small tags and cut ends) Fc: PPEMLGGPSIFIFPPKPKDTLSISRTPEVTCLVVDLGPDDSDVQITWFVDNTQVYTAKTVPREEQFNSTYRVVSVLPILHQDWLKGKEFKCKVNSKSLPSPIEDTISKAKGQPHEPQVYVLPPAQEELSRNKVSVTCLIKSFHPPDIAVEWEITGQPEPENNYRTTPPQLDSDGTYFVYSKLSVDRSHWQRGNTYTCSVSHEALHSHHTQKSLTQSPGK	0.00997
anti-NGF feline IgG1a, Fc variant S434Y, S254R (antibody, part only; not given: anti-NGF variable domains, light chain, not shown: another chain or arm of the molecule; small tags and cut ends) Fc: PPEMLGGPSIFIFPPKPKDTLSIRRTPEVTCLVVDLGPDDSDVQITWFVDNTQVYTAKTSPREEQFNSTYRVVSVLPILHQDWLKGKEFKCKVNSKSLPSPIERTISKAKGQPHEPQVYVLPPAQEELSRNKVSVTCLIKSFHPPDIAVEWEITGQPEPENNYRTTPPQLDSDGTYFVYSKLSVDRSHWQRGNTYTCSVSHEALHYHHTQKSLTQSPGK	0.00568
anti-NGF feline IgG1a, Fc variant S426L, T289H (antibody, part only; not given: Anti-NGF variable domains, not shown: another chain or arm of the molecule; small tags and cut ends) Fc: PPEMLGGPSIFIFPPKPKDTLSISRTPEVTCLVVDLGPDDSDVQITWFVDNTQVYTAKHSPREEQFNSTYRVVSVLPILHQDWLKGKEFKCKVNSKSLPSPIERTISKAKGQPHEPQVYVLPPAQEELSRNKVSVTCLIKSFHPPDIAVEWEITGQPEPENNYRTTPPQLDSDGTYFVYSKLSVDRSHWQRGNTYTCLVSHEALHSHHTQKSLTQSPGK	0.0622
anti-NGF feline IgG1a, Fc variant S434Y (antibody, part only; not given: Anti-NGF variable domains, not shown: another chain or arm of the molecule; small tags and cut ends) Fc: PPEMLGGPSIFIFPPKPKDTLSISRTPEVTCLVVDLGPDDSDVQITWFVDNTQVYTAKTSPREEQFNSTYRVVSVLPILHQDWLKGKEFKCKVNSKSLPSPIERTISKAKGQPHEPQVYVLPPAQEELSRNKVSVTCLIKSFHPPDIAVEWEITGQPEPENNYRTTPPQLDSDGTYFVYSKLSVDRSHWQRGNTYTCSVSHEALHYHHTQKSLTQSPGK	0.00629

Look at this binder and give its reported koff. anti-NGF feline IgG1a, Fc variant S428L, E380T, S434R (antibody, part only; not given: anti-NGF variable domains, not shown: another chain or arm of the molecule; small tags and cut ends) Fc: PPEMLGGPSIFIFPPKPKDTLSISRTPEVTCLVVDLGPDDSDVQITWFVDNTQVYTAKTSPREEQFNSTYRVVSVLPILHQDWLKGKEFKCKVNSKSLPSPIERTISKAKGQPHEPQVYVLPPAQEELSRNKVSVTCLIKSFHPPDIAVTWEITGQPEPENNYRTTPPQLDSDGTYFVYSKLSVDRSHWQRGNTYTCSVLHEALHRHHTQKSLTQSPGK
0.012
